B1: ZBTB22 (parent)
chain: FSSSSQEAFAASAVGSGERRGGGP

- Variants of: B1
- method description: protein stability index of a GFP-peptide fusion (GPS, HEK-293T) (PSI 1-6); higher = more stable;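 also: lentivirally expressed fusions sorted by FACS into six bins by GFP to DsRed ratio, PSI derived from sequencing read proportions per bin multiplied by bin number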
- stated conditions: c terminus: a fixed tail appended
protein stability index values, listed per item
experimental readout: protein stability index

# mutant designation, test result
data = [
    ("S12K", 3.68),
    ("S16T", 3.61),
    ("A13T", 2.71),
    ("Q6D", 4.44),
    ("S2E", 5.12),
    ("S2T", 2.53),
    ("F9V", 5.24),
    ("E7L", 1.55),
    ("G21L", 3.05),
    ("S16Q", 2.96),
    ("A10Y", 2.27),
    ("Q6S", 2.49),
    ("Q6H", 2.81),
    ("A8P", 3.94),
    ("E18M", 2.96),
    ("S2W", 3.16),
    ("R19G", 3.82),
    ("G22V", 3.33),
    ("Q6C", 3.77),
    ("R20N", 3.36),
    ("S4V", 3.87),
    ("S5H", 2.86),
]
